protocolDescription: Prodrug conversion in mouse plasma in vitro (HPLC)
Type: in vitro ADME
testConditions: mouse plasma, 37° C., HPLC; read-out: half-life of decay of the prodrug
propertyMeasured: half-life

Ask | Find the recorded half-life belonging to CCc1cc(Nc2cc(=O)n(CCCCOC(=O)[C@@H](N)C(C)C)c(=O)[nH]2)ccc1C [Val-B-EMAU, 3-(L-valylbutyl)-EMAU] and report it.
Reply | ~30 min

----------
System: B. subtilis
protocolDescription: MIC against B. subtilis
Format: cell-based
testConditions: Table 2
The following compounds are shown together with reported MIC B. subtilis values.

Ask | Name the reported MIC B. subtilis value associated with the compound CCc1cc(Nc2cc(=O)n(CCCCOC(=O)C(N)Cc3ccccc3)c(=O)[nH]2)ccc1C (stereo not shown)
Reply | >20 μ/ml

Ask | Same lookup for CCc1cc(Nc2cc(=O)n(CCCCOC(=O)C3CCCN3C(=O)OC(C)(C)C)c(=O)[nH]2)ccc1C (stereo not shown) , please.
Reply | <1.25 μ/ml

Ask | For CCc1cc(Nc2cc(=O)n(CCCCOC(=O)C(C)N)c(=O)[nH]2)ccc1C (stereo not shown) then?
Reply | 2.5 μ/ml

Ask | Next: "CCc1cc(Nc2cc(=O)n(CCCCOC(=O)[C@@H](N)C(C)C)c(=O)[nH]2)ccc1C"
Reply | 4 μ/ml
